TEST_DESCRIPTION: Induction of Vgamma9Vdelta2 T cell proliferation in human peripheral blood
Assay type: functional, cell-based
QUANTITY_NAME: EC50 (nM)
I only need the number, in nM, no unit after it.

Query string: Please report the measured EC50 for `CCOC(=O)CNP(=O)(CC/C=C(\C)CO)NCC(=O)OCC`
Result string: 43

Query string: Please list EC50 recorded for the compound `COC(=O)[C@@H](NP(=O)(CC/C=C(\C)CO)N[C@H](C(=O)OC)C(C)C)C(C)C`
Result string: 30

###

TEST_DESCRIPTION: Stability of the compound in human K562 cell lysates in lysis buffer assessed as parent compound remaining measured after 4 hrs
Type: ADME, subcellular
ASSAY_CONDITIONS: k562, 4 h
For each record, write down the corresponding Stability.
Provide the reading as a plain figure in %.

Query string: Supply measured Stability of `CCOC(=O)CNP(=O)(CCC=C(C)C)NCC(=O)OCC` in your reply.
Result string: 86

Query string: # return recorded Stability for input `CCOC(=O)CNP(=O)(CC/C=C(\C)CO)NCC(=O)OCC`
Result string: 57

Query string: Item `CCOC(=O)[C@H](C)NP(=O)(CCC=C(C)C)N[C@@H](C)C(=O)OCC` : provide Stability
Result string: 31

Query string: Identify Stability associated with the compound CCOC(=O)CNP(=O)(CC/C=C(\C)CO)Oc1ccccc1 (racemic)
Result string: 86

Query string: Provide one value: measured Stability of `COC(=O)[C@@H](NP(=O)(CC/C=C(\C)CO)N[C@H](C(=O)OC)C(C)C)C(C)C`
Result string: 74

Query string: Provide measured Stability value, entry: `CC(C)=CCCP(=O)(N[C@@H](C)C(=O)OC(C)C)N[C@@H](C)C(=O)OC(C)C`
Result string: 79

Query string: Using known records, supply Stability for `C/C(=C\CCP(=O)(OCOC(=O)C(C)(C)C)OCOC(=O)C(C)(C)C)CO`
Result string: 0

Query string: Supply reported Stability belonging to this compound: `COC(=O)[C@@H](NP(=O)(CCC=C(C)C)N[C@H](C(=O)OC)C(C)C)C(C)C`
Result string: 85

These measurements were taken from ChEMBL document CHEMBL5143661.
